Molecular target: recombinant sEH (Homo sapiens, UniProt P34913)
Test: biochemical screening assay for inhibition of soluble epoxide hydrolase (fluorometric, Phome substrate)
pIC50: −log10 of the molar value.
Listed next: entries and their corresponding pIC50.

compound: O=C(NCc1ccc(F)cc1)N[C@H]1CO[C@@H]2[C@@H]1OC[C@H]2C#Cc1ccccc1
pIC50: 6.83

compound: Cc1cccc(CNC(=O)N[C@H]2CO[C@@H]3[C@@H]2OC[C@H]3/C=C\c2ccccc2)c1
pIC50: 7.01

compound: Cc1cccc(CNC(=O)NC2COC3C(CCc4ccccc4)COC23)c1 (centres unmarked)
pIC50: 6.95

compound: Cc1cc(C)cc(NC(=O)NC2COC3C(CCc4ccsc4)COC23)c1 (centres unmarked)
pIC50: 8.05

compound: O=C(NCCc1ccccc1)N[C@H]1CO[C@H]2[C@@H]1OC[C@@H]2/C=C\c1ccccc1
pIC50: 7.74

compound: O=C(Nc1ccc(C(F)(F)F)cc1)NC1COC2C(C=Cc3ccsc3)COC12 (centres unmarked)
pIC50: 7.77

compound: N#Cc1ccc(S[C@H]2CO[C@H]3[C@@H]2OC[C@@H]3NC(=O)NC2CCCCC2)nc1
pIC50: 8.40

compound: Cc1ncccc1O[C@H]1CO[C@H]2[C@@H]1OC[C@@H]2NC(=O)NCc1cn(C)cn1
pIC50: 6.00

====

Target: recombinant sEH (Homo sapiens)
Sequence (P34913 1-555): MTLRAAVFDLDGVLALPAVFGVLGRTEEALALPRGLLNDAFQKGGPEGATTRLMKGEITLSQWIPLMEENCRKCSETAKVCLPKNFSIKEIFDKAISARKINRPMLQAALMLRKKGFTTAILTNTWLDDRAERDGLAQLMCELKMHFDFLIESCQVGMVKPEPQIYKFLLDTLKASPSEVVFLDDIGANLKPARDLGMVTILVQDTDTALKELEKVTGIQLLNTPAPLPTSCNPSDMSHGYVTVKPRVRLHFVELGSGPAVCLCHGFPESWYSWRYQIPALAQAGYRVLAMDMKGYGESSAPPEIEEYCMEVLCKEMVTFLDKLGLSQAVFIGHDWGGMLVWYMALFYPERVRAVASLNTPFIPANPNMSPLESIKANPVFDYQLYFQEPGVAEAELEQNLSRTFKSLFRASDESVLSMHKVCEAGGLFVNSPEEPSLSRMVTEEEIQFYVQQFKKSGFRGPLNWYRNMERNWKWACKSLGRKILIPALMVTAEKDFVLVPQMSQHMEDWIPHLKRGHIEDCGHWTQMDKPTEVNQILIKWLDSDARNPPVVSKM
Assay: biochemical screening assay for inhibition of soluble epoxide hydrolase (fluorometric, Phome substrate)
IC50 under 2 nM gets class 1, anything at or over 2 nM gets class 0.

compound: Cc1ncccc1O[C@H]1CO[C@H]2[C@@H]1OC[C@@H]2NC(=O)NC1CCCN(C(=O)C(F)(F)F)C1 (some centres unmarked)
targetSystem: recombinant sEH (Homo sapiens)
group: class 0

compound: Cc1nc(-c2ccc(O[C@H]3CO[C@H]4[C@@H]3OC[C@@H]4NC(=O)NC3CCCCC3)cc2)no1
targetSystem: recombinant sEH (Homo sapiens)
group: class 1

compound: CC(=O)NCCS[C@H]1CO[C@H]2[C@@H]1OC[C@@H]2NC(=O)NC1CCCCC1
targetSystem: recombinant sEH (Homo sapiens)
group: class 0

compound: O=C(Nc1ccc2c(c1)CCC2)N[C@H]1CO[C@@H]2[C@@H](CCc3ccsc3)CO[C@@H]21
targetSystem: recombinant sEH (Homo sapiens)
group: class 0

compound: CC(C)(CCO)S[C@H]1CO[C@H]2[C@@H]1OC[C@@H]2NC(=O)NC1CCCCC1
targetSystem: recombinant sEH (Homo sapiens)
group: class 0

compound: Cc1ncccc1O[C@H]1CO[C@H]2[C@@H]1OC[C@@H]2NC(=O)NCC1CCCO1 (some centres unmarked)
targetSystem: recombinant sEH (Homo sapiens)
group: class 0

compound: COc1ccc(O[C@H]2CO[C@H]3[C@@H]2OC[C@@H]3NC(=O)NC2CCCCC2)cc1
targetSystem: recombinant sEH (Homo sapiens)
group: class 1
